# targetOrSystem: human Hv1 D185A-H193A (Homo sapiens, UniProt Q96D96, D185A/H193A)
# Sequence (Q96D96 1-273 D185A/H193A): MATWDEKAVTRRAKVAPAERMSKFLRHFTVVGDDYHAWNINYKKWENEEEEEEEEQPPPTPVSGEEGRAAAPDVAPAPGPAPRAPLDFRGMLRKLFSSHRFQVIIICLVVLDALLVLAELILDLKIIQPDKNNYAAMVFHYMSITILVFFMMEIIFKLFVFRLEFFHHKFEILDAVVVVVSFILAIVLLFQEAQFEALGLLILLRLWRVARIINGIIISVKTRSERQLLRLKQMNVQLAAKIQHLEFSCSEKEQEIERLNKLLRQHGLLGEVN
# assayProcedure: Whole-cell voltage clamp, Zn^2+ modulation of GAQ gating
# conditionNotes: read-out: IC50, fit of the mean data to a Hill function; Fig. 4D
observedProperty: IC50 (µM)
Provide only the numeric value, understood in µM.

Lookup: GET /values?readout=IC50&item= [Cl-].[Cl-].[Zn+2] [Zn^2+, ZnCl2]
Found: 99.2

====

# targetOrSystem: human Hv1 D130H (D^1.69H) (Homo sapiens, UniProt Q96D96, D130H)
# assayProcedure: Whole-cell voltage clamp, Zn^2+ modulation of GAQ gating
# conditionNotes: read-out: IC50, fit of the mean data to a Hill function; Fig. 4C
observedProperty: IC50 (nM)
Provide only the numeric value, understood in nM.

Lookup: Hello, I am looking for reported IC50 with human Hv1 D130H (D^1.69H) (Homo sapiens, UniProt Q96D96, D130H) for `[Cl-].[Cl-].[Zn+2]` . Could you help?
Found: 2400

====

# targetOrSystem: human Hv1 D112N (D^1.51N) (Homo sapiens, UniProt Q96D96, D112N)
# assayProcedure: Whole-cell voltage clamp, Zn^2+ modulation of GAQ gating
# conditionNotes: read-out: Mean IC50 @ VSTEP; VSTEP 140 mV; pH 6.5; determined from tail current
observedProperty: pIC50
Conceptually, pIC50 converts a concentration in mol/L into minus its log10.

Lookup: GET /values?readout=pIC50&item= `[Cl-].[Cl-].[Zn+2]`
Found: 5.02

Reference source for all entries: paper PMC5987874
